target: BsuCA1 (BsCA1); assay type: biochemical, Brucella suis; settings: read-out: KI (nM) ^* / BsuCA1^b
recorded.metric: Ki (nM)
Express your answer in nM, writing the number without its unit.

What measured Ki goes with Cc1nn(-c2ccncc2S(N)(=O)=O)c(C)c1C [compound 14, 14] ?
45

I am curious: what Ki value has been reported for CCOC(=O)CCc1c(C)nn(-c2ccncc2S(N)(=O)=O)c1C [compound 16, 16] ?
41

Quick one: Ki of NS(=O)(=O)c1cnccc1N1CCC(Cc2ccccc2)CC1 [compound 12, 12] ?
40

Any idea what Ki was measured for NS(=O)(=O)c1cnccc1N1CCN(Cc2ccccc2)CC1 [compound 10, 10] ?
34

Entry CCCCc1c(C)nn(-c2ccncc2S(N)(=O)=O)c1C [compound 15, 15] : reported Ki = ?
47

Requested field: Ki. Item: Cc1cc(C)n(-c2ccncc2S(N)(=O)=O)n1 [compound 13, 13]
38

Recorded Ki for NS(=O)(=O)c1cnccc1N1CCN(Cc2ccc3c(c2)OCO3)CC1 [compound 11, 11] , please?
36

Where do these numbers come from? They come from paper PMC7011973.
